Values from patent US20250332141A1

# testedSystem: rPfGS (Plasmodium falciparum glutamine synthetase) (Plasmodium falciparum)
# Sequence (C0H551 1-543): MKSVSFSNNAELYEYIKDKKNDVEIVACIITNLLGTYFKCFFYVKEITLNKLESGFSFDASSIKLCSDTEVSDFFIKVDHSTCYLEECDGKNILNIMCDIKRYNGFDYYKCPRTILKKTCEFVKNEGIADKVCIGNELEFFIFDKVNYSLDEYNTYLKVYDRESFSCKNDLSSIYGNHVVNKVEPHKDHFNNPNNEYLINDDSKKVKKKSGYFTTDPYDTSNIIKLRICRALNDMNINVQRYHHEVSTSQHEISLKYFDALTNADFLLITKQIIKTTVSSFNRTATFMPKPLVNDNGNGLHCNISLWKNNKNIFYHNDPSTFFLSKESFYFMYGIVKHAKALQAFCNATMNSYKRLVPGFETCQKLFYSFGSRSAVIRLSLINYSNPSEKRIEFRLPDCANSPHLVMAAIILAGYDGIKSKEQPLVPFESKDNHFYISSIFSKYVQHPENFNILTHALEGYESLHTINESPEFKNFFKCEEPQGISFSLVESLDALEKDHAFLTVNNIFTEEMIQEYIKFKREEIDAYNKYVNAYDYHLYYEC
# test: Recombinant PfGS enzyme assay (HPLC glutamine formation / Pi release) and inhibition
readoutName: Ki (nM)
Answers are plain numbers, in nM.

Documented Ki of CP(=O)(O)CCC(N)C(=O)O (stereo not shown) [PPT, Phosphinothricin] : 2310
